System: TGF-β-induced luciferase activity in HEK293T cells
Assay: TGF-β-induced SMAD luciferase reporter assay in HEK293T cells
Format: cell-based, human
Conditions: HEK-293T; summary value, human HEK cells; read-out: HEK Luciferase Assay
reported property: pIC50
Value format note: pIC50 is -log10 of concentration (mol/L); just state the number.

(Q) Fill in: pIC50 of `CNCCOc1ccc(-c2cc(-c3c[nH]nc3-c3cccc(C)n3)ccn2)cc1` is ___
(A) 7.93

----------
Biological target: ALK5 (Homo sapiens)
Sequence (P36897 34-503): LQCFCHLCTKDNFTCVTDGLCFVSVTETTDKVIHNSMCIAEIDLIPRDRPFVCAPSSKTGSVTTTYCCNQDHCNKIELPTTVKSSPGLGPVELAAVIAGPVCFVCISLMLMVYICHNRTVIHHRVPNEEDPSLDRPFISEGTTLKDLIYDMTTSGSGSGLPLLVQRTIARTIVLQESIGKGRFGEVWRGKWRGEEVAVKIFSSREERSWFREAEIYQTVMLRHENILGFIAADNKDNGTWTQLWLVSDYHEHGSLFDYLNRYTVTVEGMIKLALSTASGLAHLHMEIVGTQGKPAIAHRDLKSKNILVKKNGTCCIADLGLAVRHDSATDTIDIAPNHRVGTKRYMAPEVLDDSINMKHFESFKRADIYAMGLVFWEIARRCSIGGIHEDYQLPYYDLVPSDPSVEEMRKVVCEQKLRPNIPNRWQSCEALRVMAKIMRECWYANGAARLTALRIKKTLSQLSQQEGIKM
Experiment: recombinant kinase assays
Assay type: biochemical
Conditions: Morrison equat/ 5 uM ATP; read-out: Ki (nM) (Morrison equat/ 5 uM ATP)
reported property: Ki (nM)
Just the number in nM, nothing appended.

(Q) Fill in: Ki of CNCCOc1ccc(-c2cc(-c3c[nH]nc3-c3cccc(C)n3)ccn2)cc1 [Compound C] is ___
(A) 0.11

(Q) Fill in: Ki of CCc1cc(-c2ccc3ncnc(N)c3c2)n(-c2cccc(C)n2)n1 [Compound N] is ___
(A) 2.1

----------
Target: ALK5 (Homo sapiens, UniProt P36897)
Experiment: recombinant kinase assays
Assay type: biochemical
Settings: Kinase = 25 nM; read-out: IC50 (nM) (Kinase = 25 nM)
Exercise: for every item that follows, state its recorded IC50.
Just the number in nM, nothing appended.

(Q) Fill in: IC50 of CNCCOc1ccc(-c2cc(-c3c[nH]nc3-c3cccc(C)n3)ccn2)cc1 [Compound C] is ___
(A) 10

(Q) Fill in: IC50 of CCc1cc(-c2ccc3ncnc(N)c3c2)n(-c2cccc(C)n2)n1 [Compound N] is ___
(A) 18

----------
Exercise: for every item that follows, state its recorded IC50.
Target: ALK5 (Homo sapiens)
Experiment: recombinant kinase assays
Assay type: biochemical
Details: Kinase = 1.5 nM; read-out: IC50 (nM) (Kinase = 1.5 nM)
Just the number in nM, nothing appended.

(Q) Fill in the recorded IC50 for this molecule, with ALK5 (Homo sapiens) as test system: `CCc1cc(-c2ccc3ncnc(N)c3c2)n(-c2cccc(C)n2)n1`
(A) 12

(Q) Fill in the recorded IC50 for this molecule, with ALK5 (Homo sapiens) as test system: `CNCCOc1ccc(-c2cc(-c3c[nH]nc3-c3cccc(C)n3)ccn2)cc1`
(A) 1.8

----------
System: primary mouse CD4+ T cells
Assay: MTS proliferation assay
Format: cell-based
Conditions: CD4+ T; summary value, mouse T cells; read-out: Mouse T cell proliferation assay
reported property: pIC50
Value format note: pIC50 is -log10 of concentration (mol/L); just state the number.

(Q) Fill in: pIC50 of `CNCCOc1ccc(-c2cc(-c3c[nH]nc3-c3cccc(C)n3)ccn2)cc1` is ___
(A) 7.59
